experiment: Pharmacokinetics and brain concentrations in rats (HPLC/MS); settings: male, Wistar, rat, in vivo, iv, 10 mg/kg, half-life, rat plasma, calculated from elimination part of i.v. plot
measurement-type: half-life

In [3]: df
Out[3]:
                          molecule_smiles  measurement_type  value_observed
0  Clc1ccccc1C(c1ccccc1)(c1ccccc1)n1cccn1         half-life            ~2 h

----------
Assay: Pharmacokinetics and brain concentrations in rats (HPLC/MS)
Conditions: Wistar, rat, in vivo
Procedure: At various time points following the injection approximately 100-200 μl of blood were collected from a tail nick into EDTA blood sample collection tubes. […] Blood samples were taken by cardiac puncture under deep isoflurane anesthesia. The right atrium was then cut open and 20 mL of saline slowly injected into the left ventricle to flush the blood out of the circulation. The rats were then sacrificed and brains removed. […]
measurement-type: Kp

>>> print(df.to_string())
                                   compound  measurement_type  value_observed
0  Clc1ccccc1C(c1ccccc1)(c1ccccc1)n1cccn1 [TRAM-34]                Kp             1.2
